# system-tested: Delta-type opioid receptor (Mus musculus)
# Sequence (P32300 whole entry): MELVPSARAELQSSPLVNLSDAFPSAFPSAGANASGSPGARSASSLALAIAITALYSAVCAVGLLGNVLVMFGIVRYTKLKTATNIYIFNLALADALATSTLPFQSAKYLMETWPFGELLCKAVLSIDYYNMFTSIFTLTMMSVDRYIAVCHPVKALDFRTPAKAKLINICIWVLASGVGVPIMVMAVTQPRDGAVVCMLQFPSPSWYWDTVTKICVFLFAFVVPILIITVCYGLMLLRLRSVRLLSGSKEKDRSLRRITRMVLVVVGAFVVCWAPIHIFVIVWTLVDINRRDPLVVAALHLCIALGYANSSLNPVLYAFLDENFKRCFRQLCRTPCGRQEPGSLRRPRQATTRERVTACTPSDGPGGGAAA
# run-description: Antagonist potency measured as Ke = [antagonist]/(IC50 ratio-1) against delta opioid receptor from mouse vas deferens (MVD) using DPDPE
observed-property: pKi
// pKi: -log10(molar conc.)

Query block: Enter reported pKi observed with Delta-type opioid receptor (Mus musculus) for Oc1ccc2c3c1O[C@H]1c4ncc(-c5ccccc5)cc4C[C@@]4(O)[C@@H](C2)N(CC2CC2)CC[C@]314
Result block: 8.47

* * *

# Species on record: Cavia porcellus
# run-description: Selectivity ratio of binding affinity towards mu of […] preparations
# Format: tissue-based
The reader will find reported Selectivity ratio values listed item by item below.
The reply should be a number, written without any unit.

Oc1ccc2c3c1O[C@H]1c4nc(-c5ccccc5)ccc4C[C@@]4(O)[C@@H](C2)N(CC2CC2)CC[C@]314    3.5

Query block: Param item = Oc1ccc2c3c1O[C@H]1c4ncccc4C[C@@]4(O)[C@@H](C2)N(CC2CC2)CC[C@]314 ; retrieve measured Selectivity ratio.
Result block: 4.4

Query block: What do you get for Oc1ccc2c3c1O[C@H]1c4ncc(-c5ccccc5)cc4C[C@@]4(O)[C@@H](C2)N(CC2CC2)CC[C@]314 ?
Result block: 12

Query block: Next: Oc1ccc2c3c1O[C@H]1c4nc(Cc5ccccc5)nc(-c5ccccc5)c4C[C@@]4(O)[C@@H](C2)N(CC2CC2)CC[C@]314
Result block: 0.17

* * *

Attribute: Selectivity ratio
# Species on record: Cavia porcellus
# run-description: Selectivity ratio of binding affinity towards mu of […] preparations
# Type: tissue-based
Number only, please.

// below: answered compounds
Oc1ccc2c3c1O[C@H]1c4ncnc(-c5ccccc5)c4C[C@@]4(O)[C@@H](C2)N(CC2CC2)CC[C@]314    0.7
Oc1ccc2c3c1OC1c4nccc(-c5ccccc5)c4C[C@@]4(O)[C@@H](C2)N(CC2CC2)CC[C@]314 (stereo not given in full)    3.7
Oc1ccc2c3c1O[C@H]1c4nc(-c5ccccc5)nc(-c5ccccc5)c4C[C@@]4(O)[C@@H](C2)N(CC2CC2)CC[C@]314    3.7
Oc1ccc2c3c1O[C@H]1c4ncncc4C[C@@]4(O)[C@@H](C2)N(CC2CC2)CC[C@]314    2

Turning to the following compound.
Query block: What value of Selectivity ratio has been reported for the following compound? Oc1ccc2c3c1O[C@H]1c4nc(-c5ccccc5)ncc4C[C@@]4(O)[C@@H](C2)N(CC2CC2)CC[C@]314
Result block: 0.4

* * *

# system-tested: Mu-type opioid receptor (Cavia porcellus)
# run-description: Antagonist potency against mu opioid receptor in guinea pig ileum (GPI) using […]
# Type: functional, tissue-based
observed-property: IC50 ratio
Field format: numeric only.

Reference set, count: 3
Oc1ccc2c3c1O[C@H]1c4ncnc(-c5ccccc5)c4C[C@@]4(O)[C@@H](C2)N(CC2CC2)CC[C@]314    5.9
Oc1ccc2c3c1OC1c4nccc(-c5ccccc5)c4C[C@@]4(O)[C@@H](C2)N(CC2CC2)CC[C@]314 (some centres undefined)    6.21
Oc1ccc2c3c1O[C@H]1c4nc(-c5ccccc5)nc(-c5ccccc5)c4C[C@@]4(O)[C@@H](C2)N(CC2CC2)CC[C@]314    2.8

Query block: For Oc1ccc2c3c1O[C@H]1c4ncncc4C[C@@]4(O)[C@@H](C2)N(CC2CC2)CC[C@]314 , what is its reported IC50 ratio?
Result block: 7.52

Query block: Further, for Oc1ccc2c3c1O[C@H]1c4nc(Cc5ccccc5)nc(-c5ccccc5)c4C[C@@]4(O)[C@@H](C2)N(CC2CC2)CC[C@]314 ?
Result block: 23.8

Query block: Also check Oc1ccc2c3c1O[C@H]1c4ncccc4C[C@@]4(O)[C@@H](C2)N(CC2CC2)CC[C@]314
Result block: 7.08
